molecular target: ALK (R1275Q) (Homo sapiens, UniProt Q9UM73, R1275Q); assay: Biochemical kinase assay (Reaction Biology); details: 10 μM ATP
Sequence (Q9UM73 19-1620 R1275Q): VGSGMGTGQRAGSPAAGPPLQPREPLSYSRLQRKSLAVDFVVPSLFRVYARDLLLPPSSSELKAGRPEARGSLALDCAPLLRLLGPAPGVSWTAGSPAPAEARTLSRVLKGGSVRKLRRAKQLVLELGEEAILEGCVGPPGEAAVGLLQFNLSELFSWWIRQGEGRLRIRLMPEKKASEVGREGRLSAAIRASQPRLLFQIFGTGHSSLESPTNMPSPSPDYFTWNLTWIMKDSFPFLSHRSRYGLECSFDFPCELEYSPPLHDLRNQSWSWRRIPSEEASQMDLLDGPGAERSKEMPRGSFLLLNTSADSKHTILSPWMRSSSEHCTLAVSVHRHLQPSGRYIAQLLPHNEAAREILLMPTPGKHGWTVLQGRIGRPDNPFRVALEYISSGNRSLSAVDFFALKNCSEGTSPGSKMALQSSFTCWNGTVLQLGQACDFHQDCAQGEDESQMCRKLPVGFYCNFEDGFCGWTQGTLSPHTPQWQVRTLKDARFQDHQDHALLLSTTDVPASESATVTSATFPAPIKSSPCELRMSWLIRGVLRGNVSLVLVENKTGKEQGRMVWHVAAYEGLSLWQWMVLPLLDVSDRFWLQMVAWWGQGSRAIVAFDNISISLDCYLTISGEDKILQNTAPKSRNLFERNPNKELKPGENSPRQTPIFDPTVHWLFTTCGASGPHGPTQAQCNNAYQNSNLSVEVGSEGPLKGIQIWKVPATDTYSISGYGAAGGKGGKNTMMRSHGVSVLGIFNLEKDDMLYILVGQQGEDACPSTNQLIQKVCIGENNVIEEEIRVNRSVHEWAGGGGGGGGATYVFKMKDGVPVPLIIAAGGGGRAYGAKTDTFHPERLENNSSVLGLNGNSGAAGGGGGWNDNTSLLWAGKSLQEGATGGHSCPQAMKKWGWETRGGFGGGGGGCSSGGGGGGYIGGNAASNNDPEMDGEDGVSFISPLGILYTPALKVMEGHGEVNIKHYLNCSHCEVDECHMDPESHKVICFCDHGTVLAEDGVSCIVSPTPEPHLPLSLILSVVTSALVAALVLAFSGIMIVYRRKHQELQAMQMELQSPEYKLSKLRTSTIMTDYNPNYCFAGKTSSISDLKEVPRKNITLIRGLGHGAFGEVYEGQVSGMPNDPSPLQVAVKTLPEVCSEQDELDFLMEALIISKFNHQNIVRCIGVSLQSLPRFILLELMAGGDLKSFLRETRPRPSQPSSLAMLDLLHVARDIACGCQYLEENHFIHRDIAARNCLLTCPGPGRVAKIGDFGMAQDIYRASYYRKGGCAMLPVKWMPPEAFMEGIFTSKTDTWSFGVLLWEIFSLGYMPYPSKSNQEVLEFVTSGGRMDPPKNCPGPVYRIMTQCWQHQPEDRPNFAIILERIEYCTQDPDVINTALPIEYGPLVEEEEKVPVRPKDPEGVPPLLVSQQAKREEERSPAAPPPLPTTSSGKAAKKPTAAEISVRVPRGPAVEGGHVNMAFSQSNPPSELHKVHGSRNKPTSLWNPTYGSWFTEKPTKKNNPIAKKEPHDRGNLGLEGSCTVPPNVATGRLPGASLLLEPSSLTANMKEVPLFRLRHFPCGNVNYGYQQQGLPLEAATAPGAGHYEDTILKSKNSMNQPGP
quantity measured: pIC50
Here pIC50 is given on a logarithmic scale as minus log10 of the concentration in mol/L.

For the compound `O=C1NCC2(CC2)COc2ccc(F)cc2CN2c3nc4c1cnn4cc3OC[C@H]2C(F)F` , give its measured pIC50 value.
9.14

====

Give measured Tmax for each item. Keep answers brief.
assay: Mouse pharmacokinetic study; type: in vivo; settings: single oral dose (dose level not given), plasma
Kindly provide the numeric value in h only, without the unit symbol.

For the compound C[C@@H]1COc2cn3ncc4c3nc2N1Cc1cc(F)cnc1OCC(C)(C)NC4=O [Comp. Ex. 2, reference compound] , give its measured Tmax value.
0.5

For the compound C[C@@H]1COc2ncc(F)cc2CN2c3nc4c(cnn4cc3OC[C@H]2C)C(=O)N1 [Comp. Ex. 1, reference compound] , give its measured Tmax value.
0.5

For the compound O=C1NCC2(CC2)COc2ccc(F)cc2CN2c3nc4c1cnn4cc3OC[C@H]2C(F)F [Compound 2] , give its measured Tmax value.
2

For the compound CC1(C)COc2ccc(F)cc2CN2c3nc4c(cnn4cc3OC[C@H]2C(F)F)C(=O)N1 [Compound 1] , give its measured Tmax value.
2

====

target: ALK (S1206R) (Homo sapiens, UniProt Q9UM73, S1206R); assay: Biochemical kinase assay (Reaction Biology); conditions: 10 μM ATP
Sequence (Q9UM73 19-1620 S1206R): as the sequence (Q9UM73 19-1620 R1275Q) above, with S1188R, Q1257R counted along it
quantity measured: pIC50
Here pIC50 is given on a logarithmic scale as minus log10 of the concentration in mol/L.

For the compound O=C1NCC2(CC2)COc2ccc(F)cc2CN2c3nc4c1cnn4cc3OC[C@H]2C(F)F [Compound 2] , give its measured pIC50 value.
9.51

====

assay: Liver microsomal stability; assay type: in vitro ADME; conditions: female, mouse, liver microsomes, pH 7.4; 1 μM compound, 0.5 mg/mL liver microsome protein
quantity measured: microsomal CLint at 1 µM (µL/min/mg)
Kindly provide the numeric value in µL/min/mg only, without the unit symbol.

For the compound C[C@@H]1COc2ncc(F)cc2CN2c3nc4c(cnn4cc3OC[C@H]2C)C(=O)N1 [Comp. Ex. 1, reference compound] , give its measured microsomal CLint at 1 µM value.
22

For the compound C[C@@H]1COc2cn3ncc4c3nc2N1Cc1cc(F)cnc1OCC(C)(C)NC4=O [Comp. Ex. 2, reference compound] , give its measured microsomal CLint at 1 µM value.
21

For the compound O=C1NCC2(CC2)COc2ccc(F)cc2CN2c3nc4c1cnn4cc3OC[C@H]2C(F)F [Compound 2] , give its measured microsomal CLint at 1 µM value.
25

For the compound CC1(C)COc2ccc(F)cc2CN2c3nc4c(cnn4cc3OC[C@H]2C(F)F)C(=O)N1 [Compound 1] , give its measured microsomal CLint at 1 µM value.
11

====

target: ALK (L1196M) (Homo sapiens, UniProt Q9UM73, L1196M); test: Biochemical kinase assay (Reaction Biology); conditions: 10 μM ATP
quantity measured: IC50 (nM)
Kindly provide the numeric value in nM only, without the unit symbol.

For the compound `O=C1NCC2(CC2)COc2ccc(F)cc2CN2c3nc4c1cnn4cc3OC[C@H]2C(F)F` , give its measured IC50 value.
0.18

====

Assay: Mouse pharmacokinetic study
Assay type: in vivo
Settings: single oral dose (dose level not given), plasma
Method: To prepare 1 L of the vehicle solution (0.5% CMC and 1.0% Tween 80), 10 g of Tween 80 was mixed with 985 mL of water into a 1 L bottle. The mixture was stirred until Tween 80 was completely dissolved. […] The compound was suspended in the vehicle solution and the mice were orally administrated with a single dose of the compound at the selected dose level. […] The plasma was harvested into pre-labeled tubes and stored at −80° C. until analyzed by LC-MS/MS.
quantity measured: Cmax (ng/mL)
Kindly provide the numeric value in ng/mL only, without the unit symbol.

For the molecule CC1(C)COc2ccc(F)cc2CN2c3nc4c(cnn4cc3OC[C@H]2C(F)F)C(=O)N1 [Compound 1] , give its measured Cmax value.
1750

For the molecule C[C@@H]1COc2cn3ncc4c3nc2N1Cc1cc(F)cnc1OCC(C)(C)NC4=O [Comp. Ex. 2, reference compound] , give its measured Cmax value.
2900

For the molecule O=C1NCC2(CC2)COc2ccc(F)cc2CN2c3nc4c1cnn4cc3OC[C@H]2C(F)F [Compound 2] , give its measured Cmax value.
2510

For the molecule C[C@@H]1COc2ncc(F)cc2CN2c3nc4c(cnn4cc3OC[C@H]2C)C(=O)N1 [Comp. Ex. 1, reference compound] , give its measured Cmax value.
4190

====

Give measured pIC50 for each item. Keep answers brief.
target: KG-1 cell (OP2-FGFR1) (Homo sapiens, UniProt P11362); experiment: Cell proliferation assay (CellTiter-Glo)
Sequence (P11362 456-822 limits assumed): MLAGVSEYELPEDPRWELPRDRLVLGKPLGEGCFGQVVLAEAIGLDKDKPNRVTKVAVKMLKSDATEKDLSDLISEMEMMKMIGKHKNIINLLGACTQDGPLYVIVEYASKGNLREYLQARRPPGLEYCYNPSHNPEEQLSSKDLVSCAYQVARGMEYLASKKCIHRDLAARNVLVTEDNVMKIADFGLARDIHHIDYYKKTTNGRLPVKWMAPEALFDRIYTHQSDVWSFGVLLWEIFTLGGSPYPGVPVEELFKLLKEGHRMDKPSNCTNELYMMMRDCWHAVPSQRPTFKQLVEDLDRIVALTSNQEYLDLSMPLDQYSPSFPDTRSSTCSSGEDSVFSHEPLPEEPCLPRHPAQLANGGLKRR
Here pIC50 is given on a logarithmic scale as minus log10 of the concentration in mol/L.

Fill: pIC50 (KG-1 cell (OP2-FGFR1) (Homo sapiens, UniProt P11362)) for this compound `O=C1NC2(CCOc3ccc(F)cc3CN3c4nc5c1cnn5cc4OC[C@H]3C(F)F)CC2`
6.41

Fill: pIC50 (KG-1 cell (OP2-FGFR1) (Homo sapiens, UniProt P11362)) for this compound C[C@@H]1COc2ncc(F)cc2CN2c3nc4c(cnn4cc3OC[C@H]2C)C(=O)N1 [Comp. Ex. 1, reference compound]
7.65

Fill: pIC50 (KG-1 cell (OP2-FGFR1) (Homo sapiens, UniProt P11362)) for this compound `O=C1NCC2(CC2)COc2ccc(F)cc2CN2c3nc4c1cnn4cc3OC[C@H]2C(F)F`
8.42

Fill: pIC50 (KG-1 cell (OP2-FGFR1) (Homo sapiens, UniProt P11362)) for this compound `CC1(C)CCOc2ccc(F)cc2CN2c3nc4c(cnn4cc3OC[C@H]2C(F)F)C(=O)N1`
5.68

Fill: pIC50 (KG-1 cell (OP2-FGFR1) (Homo sapiens, UniProt P11362)) for this compound `C[C@@H]1CCOc2ccc(F)cc2CN2c3nc4c(cnn4cc3OC[C@H]2C(F)F)C(=O)N1`
6.29

Fill: pIC50 (KG-1 cell (OP2-FGFR1) (Homo sapiens, UniProt P11362)) for this compound C[C@@H]1COc2cn3ncc4c3nc2N1Cc1cc(F)cnc1OCC(C)(C)NC4=O [Comp. Ex. 2, reference compound]
9.19

Fill: pIC50 (KG-1 cell (OP2-FGFR1) (Homo sapiens, UniProt P11362)) for this compound `CC1(C)COc2ccc(F)cc2CN2c3nc4c(cnn4cc3OC[C@H]2C(F)F)C(=O)N1`
6.26

Fill: pIC50 (KG-1 cell (OP2-FGFR1) (Homo sapiens, UniProt P11362)) for this compound `CC1(C)CNC(=O)c2cnn3cc4c(nc23)N(Cc2cc(F)ccc2OC1)[C@H](C(F)F)CO4`
7.39

Fill: pIC50 (KG-1 cell (OP2-FGFR1) (Homo sapiens, UniProt P11362)) for this compound `O=C1NCCCOc2ccc(F)cc2CN2c3nc4c1cnn4cc3OC[C@H]2C(F)F`
7.12

Fill: pIC50 (KG-1 cell (OP2-FGFR1) (Homo sapiens, UniProt P11362)) for this compound `O=C1NC2(CC2)COc2ccc(F)cc2CN2c3nc4c1cnn4cc3OC[C@H]2C(F)F`
7.22

====

biological target: ALK (L1152R) (Homo sapiens, UniProt Q9UM73, L1152R); test: Biochemical kinase assay (Reaction Biology); conditions: 10 μM ATP
Sequence (Q9UM73 19-1620 L1152R): as the sequence (Q9UM73 19-1620 R1275Q) above, with L1134R, Q1257R counted along it
quantity measured: pIC50
Here pIC50 is given on a logarithmic scale as minus log10 of the concentration in mol/L.

Fill: pIC50 (ALK (L1152R) (Homo sapiens, UniProt Q9UM73, L1152R)) for this compound O=C1NCC2(CC2)COc2ccc(F)cc2CN2c3nc4c1cnn4cc3OC[C@H]2C(F)F [Compound 2]
9.08

====

molecular target: ALK (L1198F/C1156Y) (Homo sapiens, UniProt Q9UM73, C1156Y/L1198F); assay: Biochemical kinase assay (Reaction Biology); conditions: 10 μM ATP
quantity measured: IC50 (nM)
Kindly provide the numeric value in nM only, without the unit symbol.

For the compound `O=C1NCC2(CC2)COc2ccc(F)cc2CN2c3nc4c1cnn4cc3OC[C@H]2C(F)F` , give its measured IC50 value.
0.15

====

biological target: ALK (G1202R) (Homo sapiens, UniProt Q9UM73, G1202R); assay: Biochemical kinase assay (Reaction Biology); conditions: 10 μM ATP
Sequence (Q9UM73 19-1620 G1202R): as the sequence (Q9UM73 19-1620 R1275Q) above, with G1184R, Q1257R counted along it
quantity measured: IC50
Give me the value, and tack the unit on after it.

For the compound `O=C1NCC2(CC2)COc2ccc(F)cc2CN2c3nc4c1cnn4cc3OC[C@H]2C(F)F` , give its measured IC50 value.
0.74 nM

====

target: ALK (delete G1202) (Homo sapiens, UniProt Q9UM73, DEL1202-1202); test: Biochemical kinase assay (Reaction Biology); conditions: 10 μM ATP
Sequence (Q9UM73 with tags, fused parts or gaps DEL1202-1202): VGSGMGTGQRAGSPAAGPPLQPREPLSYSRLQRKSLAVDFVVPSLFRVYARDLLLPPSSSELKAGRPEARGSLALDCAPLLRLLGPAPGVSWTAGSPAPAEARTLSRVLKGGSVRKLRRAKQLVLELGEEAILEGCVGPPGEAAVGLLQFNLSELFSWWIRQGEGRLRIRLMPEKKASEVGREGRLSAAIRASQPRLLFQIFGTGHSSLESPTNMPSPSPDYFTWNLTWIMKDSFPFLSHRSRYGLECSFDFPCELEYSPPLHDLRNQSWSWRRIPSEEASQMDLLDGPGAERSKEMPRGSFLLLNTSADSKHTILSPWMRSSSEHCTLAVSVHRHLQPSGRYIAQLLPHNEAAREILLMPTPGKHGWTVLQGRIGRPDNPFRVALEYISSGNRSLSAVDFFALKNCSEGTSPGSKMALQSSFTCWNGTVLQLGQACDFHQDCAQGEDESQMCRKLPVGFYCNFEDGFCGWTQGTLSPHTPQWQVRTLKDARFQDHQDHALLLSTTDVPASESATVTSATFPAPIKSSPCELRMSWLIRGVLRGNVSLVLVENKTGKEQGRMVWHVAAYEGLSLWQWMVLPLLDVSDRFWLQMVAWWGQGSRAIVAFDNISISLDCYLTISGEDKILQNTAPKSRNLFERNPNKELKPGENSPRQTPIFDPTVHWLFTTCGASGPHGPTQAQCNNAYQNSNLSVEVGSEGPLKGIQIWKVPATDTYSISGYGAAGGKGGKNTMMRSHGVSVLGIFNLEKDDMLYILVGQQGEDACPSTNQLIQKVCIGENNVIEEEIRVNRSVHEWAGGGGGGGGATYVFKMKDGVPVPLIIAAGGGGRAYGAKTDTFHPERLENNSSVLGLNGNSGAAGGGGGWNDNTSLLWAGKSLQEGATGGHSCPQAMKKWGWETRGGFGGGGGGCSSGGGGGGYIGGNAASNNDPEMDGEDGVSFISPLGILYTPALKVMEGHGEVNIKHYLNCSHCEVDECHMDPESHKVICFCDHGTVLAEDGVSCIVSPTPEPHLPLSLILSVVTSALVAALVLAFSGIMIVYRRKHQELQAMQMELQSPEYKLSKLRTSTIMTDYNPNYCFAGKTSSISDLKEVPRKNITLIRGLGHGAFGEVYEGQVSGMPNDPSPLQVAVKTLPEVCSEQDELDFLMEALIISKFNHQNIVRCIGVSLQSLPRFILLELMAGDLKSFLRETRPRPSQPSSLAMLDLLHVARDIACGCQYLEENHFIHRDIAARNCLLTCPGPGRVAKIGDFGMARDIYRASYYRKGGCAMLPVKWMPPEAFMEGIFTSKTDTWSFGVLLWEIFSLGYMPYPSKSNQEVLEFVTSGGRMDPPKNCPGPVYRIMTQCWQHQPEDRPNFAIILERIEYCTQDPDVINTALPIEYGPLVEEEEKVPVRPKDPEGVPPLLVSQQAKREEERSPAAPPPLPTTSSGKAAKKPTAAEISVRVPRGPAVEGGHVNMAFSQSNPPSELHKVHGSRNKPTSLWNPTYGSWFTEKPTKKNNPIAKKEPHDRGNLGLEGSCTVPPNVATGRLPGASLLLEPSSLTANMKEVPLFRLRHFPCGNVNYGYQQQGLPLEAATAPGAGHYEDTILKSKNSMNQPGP
quantity measured: pIC50
Here pIC50 is given on a logarithmic scale as minus log10 of the concentration in mol/L.

Fill: pIC50 (ALK (delete G1202) (Homo sapiens, UniProt Q9UM73, DEL1202-1202)) for this molecule `O=C1NCC2(CC2)COc2ccc(F)cc2CN2c3nc4c1cnn4cc3OC[C@H]2C(F)F`
9.35
